Target: Aldehyde dehydrogenase 1A1 (Homo sapiens) (UniProt P00352)
Sequence (P00352 whole entry): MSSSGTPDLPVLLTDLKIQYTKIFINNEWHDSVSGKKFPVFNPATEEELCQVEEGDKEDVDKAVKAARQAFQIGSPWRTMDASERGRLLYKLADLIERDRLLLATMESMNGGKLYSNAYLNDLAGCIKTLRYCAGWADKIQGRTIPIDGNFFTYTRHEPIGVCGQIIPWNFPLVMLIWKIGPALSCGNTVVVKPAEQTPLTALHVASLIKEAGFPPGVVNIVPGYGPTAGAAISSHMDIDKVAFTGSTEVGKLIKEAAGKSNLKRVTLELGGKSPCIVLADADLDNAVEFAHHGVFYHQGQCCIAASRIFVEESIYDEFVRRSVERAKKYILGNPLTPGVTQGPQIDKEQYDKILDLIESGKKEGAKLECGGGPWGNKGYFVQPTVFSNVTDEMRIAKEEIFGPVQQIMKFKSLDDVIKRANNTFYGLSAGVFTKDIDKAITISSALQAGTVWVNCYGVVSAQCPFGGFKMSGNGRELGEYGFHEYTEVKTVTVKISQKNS
Experiment: Inhibition of human ALDH1A1 assessed as NADH formation using propionaldehyde as substrate at 10 uM by spectrophotometry
Listed here: items and their measured inhibition.
Write down the numeric answer in % and omit the unit.

compound_structure=O=C(C1CC1)N1CCN(Cc2nc3ccccc3n2Cc2ccc(C(F)(F)F)cc2)CC1 numeric_readout=37
compound_structure=CC(C)CCn1c(CN2CCN(C(=O)c3ccco3)CC2)nc2ccccc21 numeric_readout=42.1
compound_structure=CCCCn1c(CN2CCN(C(=O)C3CC3)CC2)nc2ccccc21 numeric_readout=18.2
compound_structure=Cc1cccc(Cn2c(CN3CCN(C(=O)c4ccco4)CC3)nc3ccccc32)c1 numeric_readout=73.2
compound_structure=COc1cccc(Cn2c(CN3CCN(C(=O)C4CC4)CC3)nc3ccccc32)c1 numeric_readout=44.4

IN: Fill in: inhibition of CC(C)CCn1c(CN2CCN(C(=O)C3CC3)CC2)nc2ccccc21 is ___
OUT: 70

IN: And Cc1cccc(Cn2c(CN3CCN(C(=O)CC(C)C)CC3)nc3ccccc32)c1 ?
OUT: 71.4

IN: Queued: CC(C)CCn1c(OC2CCN(C(=O)c3ccco3)CC2)nc2ccccc21
OUT: 30.8

IN: Also Cc1cccc(Cn2c(CN3CCN(C(=O)C4CCCCC4)CC3)nc3ccccc32)c1 , if possible.
OUT: 31.9

IN: Quick one: Cc1ccc(C(=O)N2CCN(Cc3nc4ccccc4n3Cc3cccc(C)c3)CC2)cc1
OUT: 64.9

* * *

List of k el at 0.75 h, 2 ug/ml values.
Assay: Metabolic stability in human liver microsomes assessed as first order elimination rate constant at 2 ug/ml measured up to 45 mins by LC-MS/MS analysis
Format: ADME, Microsome
Conditions: dose 2 µg/ml
Give the value, in units of s⁻¹, as a plain number.

Below, each entry is followed by its recorded k el at 0.75 h, 2 ug/ml result.
compound_structure=O=C(C1CC1)N1CCN(Cc2nc3ccccc3n2Cc2ccccc2Cl)CC1 parameter_measured="k el at 0.75 h, 2 ug/ml" numeric_readout=0.000367
compound_structure=Cc1cccc(Cn2c(CN3CCN(C(=O)C4CC4)CC3)nc3ccccc32)c1 parameter_measured="k el at 0.75 h, 2 ug/ml" numeric_readout=0.000333

Now examine the next entry.
IN: # lookup: k el at 0.75 h, 2 ug/ml of O=C(C1CC1)N1CCN(Cc2nc3ccccc3n2Cc2cccc(C(F)(F)F)c2)CC1
OUT: 0.000433
